Values of Ki reported for Histamine H3 receptor (Homo sapiens, UniProt Q9Y5N1) appear below.
Write the number in µM without appending the unit.

[
  {
    "compound": "CC(C)N1CCC(Oc2ccc(OCc3ccccc3Cl)c(CN(C)C)c2)C1 (stereo not drawn)",
    "uom": "µM",
    "Ki": 0.088
  },
  {
    "compound": "CN(C)C(=O)c1cc(OCCCN2CCOCC2)ccc1OCc1ccccc1Cl",
    "uom": "µM",
    "Ki": 1.1
  }
]

Consider the record given below.
Please tell me: Ki of `COc1ccccc1COc1ccc(OCCCN2CCOCC2)cc1C(=O)N(C)C` , system Histamine H3 receptor (Homo sapiens, UniProt Q9Y5N1)?
1.39
